Target: TweCAδ (Conticribra weissflogii)
Construct: gene ca1
Sequence (Q5U9J1 1-281): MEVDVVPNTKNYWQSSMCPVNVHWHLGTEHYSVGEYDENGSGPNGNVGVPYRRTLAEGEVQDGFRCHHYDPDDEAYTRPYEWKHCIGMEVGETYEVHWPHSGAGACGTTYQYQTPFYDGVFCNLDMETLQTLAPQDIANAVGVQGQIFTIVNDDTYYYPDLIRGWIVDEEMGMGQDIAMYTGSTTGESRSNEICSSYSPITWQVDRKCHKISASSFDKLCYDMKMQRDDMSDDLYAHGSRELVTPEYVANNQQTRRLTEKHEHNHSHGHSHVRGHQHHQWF
Experiment: stopped-flow CO2 hydrase assay
Format: biochemical
Details: CO2 hydration, 10 mM HEPES pH 7.5, 0.1 M Na2SO4, 25 °C, 15 min preincubation; read-out: TweCAδ
Provide the recorded log10 of Ki for the entries that follow.
Response schema: value (number) is log10 of Ki in units of nM.

Previously resolved entries follow.
{"columns": ["LINE NOTATION", "MEASUREMENT TYPE", "NUMERIC READOUT"],
 "data": [
  ["O=C(NO)Nc1ccc(C(F)(F)F)cc1Cl", "log10 of Ki", 2.93],
  ["O=C(NO)Nc1ccc(C(F)(F)F)cc1", "log10 of Ki", 3.67],
  ["O=C(NO)Nc1c(F)c(F)c(F)c(F)c1F", "log10 of Ki", 3.53],
  ["CSc1cccc(NC(=O)NO)c1", "log10 of Ki", 1.72],
  ["COc1ccccc1NC(=O)NO", "log10 of Ki", 3.46]
]}

Batch of 2 compounds: report log10 of Ki for each.
1. O=C(NO)Nc1ccc(Oc2ccccc2)cc1
2. Cc1cc(NC(=O)NO)ccc1F

[2.88, 3.60]

----------
Provide the recorded Ki for the entries that follow.
Molecular target: PgiCAγ
Construct: gene PgiCA
Test: stopped-flow CO2 hydrase assay
Assay type: biochemical, Porphyromonas gingivalis
Details: CO2 hydration, 10 mM Tris pH 8.3, 0.1 M Na2SO4, 25 °C, 15 min preincubation; read-out: PgiCAγ
Numbers only, in µM.

{"columns": ["LINE NOTATION", "MEASUREMENT TYPE", "ENDPOINT UNIT", "NUMERIC READOUT"],
 "data": [
  ["O=C(NO)Nc1ccc(Cl)cc1", "Ki", "µM", 0.934],
  ["Cc1cc(C)cc(NC(=O)NO)c1", "Ki", "µM", 5.49],
  ["O=C(NO)Nc1ccccc1Cl", "Ki", "µM", 3.03],
  ["Cc1ccccc1NC(=O)NO", "Ki", "µM", 4.21],
  ["O=C(NO)Nc1cccc(Cl)c1", "Ki", "µM", 0.819],
  ["O=C(NO)Nc1c(F)c(F)c(F)c(F)c1F", "Ki", "µM", 3.48]
]}

Batch of 4 compounds: report Ki for each.
1. Cc1ccc(C)c(NC(=O)NO)c1
2. Cc1cc(NC(=O)NO)ccc1F
3. O=C(NO)Nc1ccccc1[N+](=O)[O-]
4. Cc1ccc(NC(=O)NO)cc1

[0.0844, 2.88, 0.0823, 0.298]

----------
Molecular target: VchCAγ (Vibrio cholerae, UniProt Q9KVT1)
Construct: gene VC_0058
Sequence (Q9KVT1 1-184): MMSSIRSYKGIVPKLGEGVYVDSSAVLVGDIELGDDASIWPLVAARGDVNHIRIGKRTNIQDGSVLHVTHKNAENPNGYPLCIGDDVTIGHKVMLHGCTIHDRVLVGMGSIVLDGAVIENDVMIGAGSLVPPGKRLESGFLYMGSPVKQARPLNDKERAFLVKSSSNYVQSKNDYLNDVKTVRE
Test: stopped-flow CO2 hydrase assay
Format: biochemical
Conditions: CO2 hydration, 10 mM Tris pH 8.3, 0.1 M Na2SO4, 25 °C, 15 min preincubation; read-out: VchCAα
pKi: −log10 of the molar value.
MEASUREMENT TYPE: pKi

Previously resolved entries follow.
{"columns": ["LINE NOTATION", "RESULT"],
 "data": [
  ["O=C(NO)Nc1ccc(Oc2ccccc2)cc1", "< 5.00"],
  ["Cc1cc(C)cc(NC(=O)NO)c1", "< 5.00"],
  ["O=C(NO)Nc1c(F)c(F)c(F)c(F)c1F", "< 5.00"],
  ["O=C(NO)Nc1ccc(C(F)(F)F)cc1", "< 5.00"]
]}

Batch of 3 compounds: report pKi for each.
1. Cc1cc(NC(=O)NO)ccc1F
2. O=C(NO)Nc1ccc(F)cc1
3. CCOC(=O)c1cccc(NC(=O)NO)c1

1: < 5.00; 2: < 5.00; 3: < 5.00
